From: patent US20040132079A1

targetUnderTest: human TLR6 (Homo sapiens)
Construct: expressed in transfected cells; host or cells: Namalwa cells (ATCC CRL-1432), co-transfected with pIFN-α1-luc and pCI-TLR6, G418-selected
Sequence (Q9Y2C9 32-796): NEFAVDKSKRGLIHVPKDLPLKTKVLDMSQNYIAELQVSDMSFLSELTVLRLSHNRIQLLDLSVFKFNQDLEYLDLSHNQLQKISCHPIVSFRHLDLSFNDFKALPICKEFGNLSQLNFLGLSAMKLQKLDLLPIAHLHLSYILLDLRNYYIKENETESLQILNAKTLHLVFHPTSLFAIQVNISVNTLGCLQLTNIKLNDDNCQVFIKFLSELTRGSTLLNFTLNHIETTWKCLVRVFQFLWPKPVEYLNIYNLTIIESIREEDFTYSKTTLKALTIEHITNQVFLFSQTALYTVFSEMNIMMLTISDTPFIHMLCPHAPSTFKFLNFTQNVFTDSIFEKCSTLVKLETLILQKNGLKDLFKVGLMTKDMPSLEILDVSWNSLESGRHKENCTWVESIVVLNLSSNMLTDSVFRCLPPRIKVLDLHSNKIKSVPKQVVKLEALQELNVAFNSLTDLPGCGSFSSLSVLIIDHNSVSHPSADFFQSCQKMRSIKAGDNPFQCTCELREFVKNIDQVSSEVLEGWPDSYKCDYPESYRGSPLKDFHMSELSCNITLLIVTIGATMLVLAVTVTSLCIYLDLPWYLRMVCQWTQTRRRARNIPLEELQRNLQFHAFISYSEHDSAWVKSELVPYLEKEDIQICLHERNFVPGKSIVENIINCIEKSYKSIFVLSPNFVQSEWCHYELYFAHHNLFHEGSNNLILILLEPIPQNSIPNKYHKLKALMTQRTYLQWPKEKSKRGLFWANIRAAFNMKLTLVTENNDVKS
assayText: Luciferase induction off of the IFN-α1 promoter in pIFN-α1-luc/pCI-TLR6 co-transfected Namalwa cells
Assay type: cell-based
experimentalSetup: IRM compound 10 μM, 18 hours, compared to DMSO negative control, representative experiment
readoutKind: Fold Increase in Luciferase Induction (fold)
Give just the number in fold; leave the unit off.

* CCOCc1nc2c(N)nc3c(c2n1CC(C)(C)O)CCCC3 | 3.6
* CCCCc1nc2c(N)nc3cccnc3c2n1CC(C)C | 3.2
* CCCCc1nc2c(N)nc3ccccc3c2n1CCCCNS(C)(=O)=O | 2.6
* CCc1nc2c(N)nc3ccccc3c2n1CCCCCS(C)(=O)=O | 2.3
* Cc1nc2c(N)nc3ccccc3c2n1CC(C)(C)O | 2.7

Request: Fill in the recorded Fold Increase in Luciferase Induction for this molecule, with human TLR6 (Homo sapiens) as test system: CCCCc1nc2c(N)nc3c(c2n1CC(C)C)NCCC3
Response: 2.9

Request: Fill in the recorded Fold Increase in Luciferase Induction for this molecule, with human TLR6 (Homo sapiens) as test system: COCCc1nc2c(N)nc3ccccc3c2n1CCCCNC(=O)c1ccc(-n2cccc2)nc1
Response: 3.2

Request: Fill in the recorded Fold Increase in Luciferase Induction for this molecule, with human TLR6 (Homo sapiens) as test system: Nc1nc2ccccc2c2c1ncn2CCOCCCc1cccnc1
Response: 4.0
